So I've got a bunch of compounds here, and I need their inhibition at 100 µM values.
# TARGET OR SYSTEM: SARS‐CoV‐2 PL^pro (Severe acute respiratory syndrome coronavirus 2)
# RUN DESCRIPTION: biochemical
# Type: biochemical
# SETTINGS: read-out: Percentage inhibition SARS‐CoV‐2 PL^pro
Please state the figure in %; there is no need to write the unit.

Query :: Which inhibition at 100 µM is reported for this compound? `CNS(=O)(=O)c1ccc(C)c(C(=O)N[C@H](C)c2cccc3ccccc23)c1`
Result :: 87

Query :: # inhibition at 100 µM lookup, item `C[C@@H](NC(=O)c1ccccc1Br)c1cccc2ccccc12`
Result :: 73

Query :: Need inhibition at 100 µM, item `C[C@@H](NC(=O)c1ccccc1F)c1cccc2ccccc12`
Result :: 67

Query :: For the compound C[C@@H](NC(=O)c1ccccc1)c1cccc2ccccc12 [Compound 2 c, N ‐[(1R)‐1‐Naphth‐1‐ylethyl]benzamide] , what inhibition at 100 µM is on record?
Result :: 60

Source of measurements: paper PMC7894572
